Assay: chemical genetic growth profiling, strain panel (AID 1159580);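 note: tested at 20 µM; growth read once vehicle control cultures reached saturation at 30 °C; 1 = growth at the plate median or of vehicle wells; lower values mean less growth of the strain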
Details: S. cerevisiae deletion strains, growth OD, locus YGL253W, strain hxk2, hits give low values
Hit rate of the full screen: of about 5,500 compounds, about 2,000 (36%) were called active. Inconclusive results (about 18%) are left out. Some of the results follow.
Measurement Name: normalized growth
Just the number.

Query: Fill in: normalized growth of C#C[C@]1(OC(C)=O)CCC2C3CCC4=CC(=O)CC[C@@H]4C3CC[C@@]21C (some centres undefined) is ___
Reply: 1.01

Query: Follow-up entry: COc1cc(C(=O)O[C@H]2CC[C@@]3(C)[C@@H]4CC[C@H]5[C@]6(O)C[C@H](O)[C@@]7(O)[C@@H](CN8C[C@@H](C)CC[C@H]8[C@@]7(C)O)[C@]6(O)C[C@@]53O[C@]24O)cc(OC)c1OC
Reply: 1

Query: Follow-up entry: NNC(=O)c1ccncc1
Reply: 1.01

Query: Follow-up entry: C#C[C@]1(O)CCC2C3CCC4=CC(=O)CC[C@@H]4C3CC[C@@]21C (some centres undefined)
Reply: 0.982
